Field: normalised response. Provide a value for each of the compounds that follow.
tested on: Hs578T; assay: normalised response (% of control), CellTiter-Glo; higher = more viable cells (100 = DMSO, 0 = benzethonium chloride kill control); conditions: incubation time: 72 h
# value in %; strip the unit string

**Q:** # query: normalised response of entry O=C1NC(=O)[C@@H](c2cn3c4c(cccc24)CCC3)[C@@H]1c1c[nH]c2ccccc12 [Tivantinib] (1000 nM)
**A:** 24.6

**Q:** Query CC(C)c1c(C(=O)Nc2ccccc2)c(-c2ccccc2)c(-c2ccc(F)cc2)n1CC[C@@H](O)C[C@@H](O)CC(=O)O [Atorvastatin] (10000 nM) next
**A:** 37.8

**Q:** Query Nc1ncnc2c1c(COc1cccc(Cl)c1)nn2C1CCOCC1 (10000 nM) next
**A:** 100

**Q:** Query C/C(=C\c1csc(C)n1)[C@@H]1C[C@@H]2O[C@]2(C)CCC[C@H](C)[C@H](O)[C@@H](C)C(=O)C(C)(C)[C@@H](O)CC(=O)O1 [Patupilone] (1000 nM) next
**A:** 12.2

* * *

test system: BT-474; assay: drug sensitivity score (DSS), CellTiter-Glo (DSS (AUC-based score)); higher = stronger drug effect (viability inhibition or cytotoxicity); extreme values may be limits of the assay; settings: incubation time: 72 h
Is drug sensitivity score at least 4? Then 1.0. If not, 0.0.

**Q:** Check if drug sensitivity score >= 4 (inclusive). Item: `O=C(O)CCCc1ccc(N(CCCl)CCCl)cc1`
**A:** 0.0

**Q:** Query `Nc1ncnc2c1c(COc1cccc(Cl)c1)nn2C1CCOCC1` next
**A:** 0.0

**Q:** Query `COc1ccccc1S(=O)(=O)Nc1ccc2c(c1)CN(C)C(=O)N2` next
**A:** 0.0

**Q:** Query `C/C(=C\c1csc(C)n1)[C@@H]1C[C@@H]2O[C@]2(C)CCC[C@H](C)[C@H](O)[C@@H](C)C(=O)C(C)(C)[C@@H](O)CC(=O)O1` next
**A:** 1.0

**Q:** Query `CC(C)(C#N)c1cc(Cn2cncn2)cc(C(C)(C)C#N)c1` next
**A:** 0.0

**Q:** Query CN(C)CCN1C(=O)c2cccc3cc(N)cc(c23)C1=O [Amonafide] next
**A:** 1.0

**Q:** Query `CC(C)c1c(C(=O)Nc2ccccc2)c(-c2ccccc2)c(-c2ccc(F)cc2)n1CC[C@@H](O)C[C@@H](O)CC(=O)O` next
**A:** 1.0

* * *

test system: MDA-MB-231; test: normalised response (% of control), CellTox Green; higher = less cell death (100 = DMSO, 0 = benzethonium chloride kill control); conditions: incubation time: 72 h
Field: normalised response. Provide a value for each of the molecules that follow.
# value in %; strip the unit string

**Q:** # query: normalised response of entry O=C(O)CCCc1ccc(N(CCCl)CCCl)cc1 [Chlorambucil] (1000 nM)
**A:** 103

**Q:** Query COc1ccc(-c2ccc3c(N4CCOC[C@@H]4C)nc(N4CCOC[C@@H]4C)nc3n2)cc1CO [AZD8055] (1000 nM) next
**A:** 87.4

**Q:** Query CN(C)CCN1C(=O)c2cccc3cc(N)cc(c23)C1=O [Amonafide] (100 nM) next
**A:** 81.1

**Q:** Query O=C1NC(=O)[C@@H](c2cn3c4c(cccc24)CCC3)[C@@H]1c1c[nH]c2ccccc12 [Tivantinib] (1000 nM) next
**A:** 11.1

**Q:** Query CCCCCCCCc1ccc(CCC(N)(CO)CO)cc1 [Fingolimod] (10000 nM) next
**A:** -62.5
